Target: panel of more than 300 wild-type and mutant kinases (313 kinase panel) (Homo sapiens, UniProt Q9NRM7)
Sequence (Q9NRM7 1-1088): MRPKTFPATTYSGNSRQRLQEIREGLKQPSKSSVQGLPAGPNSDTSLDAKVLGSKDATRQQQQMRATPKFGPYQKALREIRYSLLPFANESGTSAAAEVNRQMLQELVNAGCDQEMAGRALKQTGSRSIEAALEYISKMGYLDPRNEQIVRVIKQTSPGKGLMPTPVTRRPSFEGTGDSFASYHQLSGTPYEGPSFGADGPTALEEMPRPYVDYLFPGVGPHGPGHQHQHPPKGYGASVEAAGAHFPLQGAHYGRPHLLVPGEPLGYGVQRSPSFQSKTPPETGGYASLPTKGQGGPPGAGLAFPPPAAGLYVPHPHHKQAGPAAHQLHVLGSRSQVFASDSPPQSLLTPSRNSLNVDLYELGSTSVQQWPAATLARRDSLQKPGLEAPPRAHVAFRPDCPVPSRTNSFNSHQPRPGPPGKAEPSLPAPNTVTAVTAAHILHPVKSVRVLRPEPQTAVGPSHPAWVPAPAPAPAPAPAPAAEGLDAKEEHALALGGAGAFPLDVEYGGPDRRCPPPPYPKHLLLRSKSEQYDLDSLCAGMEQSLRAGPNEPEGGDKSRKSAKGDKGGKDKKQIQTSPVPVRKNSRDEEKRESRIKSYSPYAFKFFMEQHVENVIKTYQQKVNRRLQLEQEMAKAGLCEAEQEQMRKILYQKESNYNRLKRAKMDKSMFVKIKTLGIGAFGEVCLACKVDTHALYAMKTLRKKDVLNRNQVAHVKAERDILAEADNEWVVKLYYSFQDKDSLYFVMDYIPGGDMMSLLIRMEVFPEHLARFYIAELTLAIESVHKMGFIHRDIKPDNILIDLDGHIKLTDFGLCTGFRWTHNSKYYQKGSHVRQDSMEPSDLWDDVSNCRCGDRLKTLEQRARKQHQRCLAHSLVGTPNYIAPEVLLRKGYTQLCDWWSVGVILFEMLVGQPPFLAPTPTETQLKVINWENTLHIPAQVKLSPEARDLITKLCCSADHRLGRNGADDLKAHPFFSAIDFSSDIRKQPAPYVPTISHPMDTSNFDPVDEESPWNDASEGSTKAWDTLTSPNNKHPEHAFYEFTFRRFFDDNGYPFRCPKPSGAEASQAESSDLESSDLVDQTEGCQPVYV
Test: Kinase profiling in a biochemical assay panel (mobility shift assays and ELISA), %-inhibition at 1 μM; selectivity entropy
Details: kinase LATS2; compound at 1 μM
Reported %-inhibition of LATS2 values follow for various compounds
Please respond with the number in % and leave the unit unwritten.

Example compounds with recorded %-inhibition of LATS2:
INSERT INTO measurements (test_smiles, value_reported) VALUES
  ('COc1cc2c(Nc3ccc(Br)cc3F)ncnc2cc1OCC1CCN(C)CC1', -8),
  ('CC(C)(C)c1nc(-c2cccc(NS(=O)(=O)c3c(F)cccc3F)c2F)c(-c2ccnc(N)n2)s1', 0.57),
  ('CNC(=O)c1cc(Oc2ccc(NC(=O)Nc3ccc(Cl)c(C(F)(F)F)c3)c(F)c2)ccn1', -9.47);

Switching to the query record.
Record O=S(=O)(c1cccc2cnccc12)N1CCCNCC1 . Reported %-inhibition of LATS2: 22
